test system: CAKI-1 renal; assay: NCI-60 one-dose screen, 48 h (100 = growth as untreated, 0 = no growth, -100 = all killed); details: 10 µM
About 83,000 compounds went through this panel and 20% of them were active in at least one assay; those are over-represented in the sample as a whole.
Each record here notes measured growth.
Write the number in % without appending the unit.

These solved cases illustrate the format of a correct answer.
{"molecule": "CC(=O)[O][Hg][c]1c(C)c(C)cc(C)c1C", "assay.target": "CAKI-1 renal", "units.text": "%", "growth": -83.9}
{"molecule": "Oc1c(I)cc(I)cc1I", "assay.target": "CAKI-1 renal", "units.text": "%", "growth": 109}
{"molecule": "COc1cc(/C=C/[N+](=O)[O-])cc(Br)c1OC", "assay.target": "CAKI-1 renal", "units.text": "%", "growth": 61.3}
{"molecule": "COc1ccc2c(ccc3oc([N+](=O)[O-])cc32)c1", "assay.target": "CAKI-1 renal", "units.text": "%", "growth": 5.89}
{"molecule": "O=C(O)c1cc(Cc2ccc(O)c(C(=O)O)c2)ccc1O (tested in a mixture with another compound)", "assay.target": "CAKI-1 renal", "units.text": "%", "growth": 58.4}

Quickly give me recorded growth for CC1CCC2(OC1)OC1C(O)C3C4CCC5CC(OC6OC(CO)C(OC7OC(CO)C(O)C(OC8OCC(O)C(O)C8O)C7OC7OC(CO)C(O)C(OC8OC(CO)C(O)C(O)C8O)C7O)C(O)C6O)C(O)CC5(C)C4CCC3(C)C1C2C (stereo not given) -63

====

tested on: CCRF-CEM leukemia; assay: NCI-60 one-dose screen, 48 h (100 = growth as untreated, 0 = no growth, -100 = all killed); conditions: 10 µM
About 83,000 compounds went through this panel and 20% of them were active in at least one assay; those are over-represented in the sample as a whole.
observable: growth (%)
Write the number in % without appending the unit.

These solved cases illustrate the format of a correct answer.
{"compound": "C[C@]12CC[C@H]3[C@@H](CCC4=CC(=O)CC[C@@H]43)[C@@H]1CC[C@@H]2OC(=O)N(CCCl)N=O", "units.text": "%", "test.result": 11}
{"compound": "C#CC1(O)CCC(C(C)(C)C)CC1 (stereo not given)", "units.text": "%", "test.result": 96.6}
{"compound": "O=[N+]([O-])c1ccc(N(CCO)CCO)c2c1no[n+]2[O-]", "units.text": "%", "test.result": -38}
{"compound": "O=C(O)c1cc(Cc2ccc(O)c(C(=O)O)c2)ccc1O (tested in a mixture with another compound)", "units.text": "%", "test.result": 0.136}
{"compound": "CC[C@@H](C)[C@@H]1NC(=O)C(NC(=O)C(CC(C)C)N(C)C(=O)C2CCCN2C(=O)C(C)O)C(C)OC(=O)C(Cc2ccc(OC)cc2)N(C)C(=O)C2CCCN2C(=O)C(CC(C)C)NC(=O)C(C)C(=O)C(C(C)C)OC(=O)C[C@H]1O (stereo not given in full)", "units.text": "%", "test.result": -20.7}

Look up CCRF-CEM leukemia data: growth of O=[P+](O)c1ccccc1 , then report it. 79.9

Look up CCRF-CEM leukemia data: growth of NC(=O)c1cc([N+](=O)[O-])c(Cl)c([N+](=O)[O-])c1Cl , then report it. -23.5

Look up CCRF-CEM leukemia data: growth of O=[N+]([O-])/C=C/c1ccc([N+](=O)[O-])cc1 , then report it. 34.8

Look up CCRF-CEM leukemia data: growth of COc1ccc2c(ccc3oc([N+](=O)[O-])cc32)c1 , then report it. 4.13

Look up CCRF-CEM leukemia data: growth of NNc1ccccc1 , then report it. 42.7

====

test system: RXF 393 renal; assay: NCI-60 one-dose screen, 48 h; conditions: 10 µM
About 83,000 compounds went through this panel and 20% of them were active in at least one assay; those are over-represented in the sample as a whole. Active and inactive are the calls of the source. Rule for the calls: active = growth percent below 10; inactive = the rest.
Your reply should match one of these outcome classes. true (active), false (inactive)

{"compound": "CC/C(=C/c1ccc(OC)cc1)[N+](=O)[O-]", "assay.target": "RXF 393 renal", "class.name": "true"}
{"compound": "CC[C@@H](C)[C@@H]1NC(=O)C(NC(=O)C(CC(C)C)N(C)C(=O)C2CCCN2C(=O)C(C)O)C(C)OC(=O)C(Cc2ccc(OC)cc2)N(C)C(=O)C2CCCN2C(=O)C(CC(C)C)NC(=O)C(C)C(=O)C(C(C)C)OC(=O)C[C@H]1O (stereo partly drawn)", "assay.target": "RXF 393 renal", "class.name": "true"}
{"compound": "CC(=O)Nc1c2sscc-2n(C)c1=O", "assay.target": "RXF 393 renal", "class.name": "true"}
{"compound": "O=[N+]([O-])/C=C\\c1ccc2c(c1)OCO2", "assay.target": "RXF 393 renal", "class.name": "false"}
{"compound": "NC(=O)c1cc([N+](=O)[O-])c(Cl)c([N+](=O)[O-])c1Cl", "assay.target": "RXF 393 renal", "class.name": "true"}
{"compound": "CC12OOC(c3ccccc31)c1c2ccc2ccccc12 (stereo not drawn)", "assay.target": "RXF 393 renal", "class.name": "false"}

Hello, I am checking results. What call was entered for COC(C(=O)C(O)C(C)O)C1Cc2cc3cc(OC4CC(OC(C)=O)C(OC5CC(O)C(OC)C(C)O5)C(C)O4)cc(O)c3c(O)c2C(=O)C1OC1CC(OC2CC(OC3CC(C)(O)C(OC(=O)C(C)C)C(C)O3)C(O)C(C)O2)C(O)C(C)O1 (stereo not drawn) ? true

Hello, I am checking results. What call was entered for COc1cc(/C=C/[N+](=O)[O-])cc(Br)c1OC ? true

====

system: HL-60(TB) leukemia; assay: NCI-60 one-dose screen, 48 h; conditions: 10 µM
The panel holds about 83,000 compounds, 20% with a hit somewhere; the sample as a whole holds those more often. Calls of active or inactive are those of the source. The calls were made as follows: active = growth percent below 10; inactive = the rest.
Your reply should match one of these outcome classes. 1 = active, -1 = inactive

Please review the entries below; each comes with its answer.
{"mol": "ClCc1ccc2ccccc2n1", "class.name": -1}
{"mol": "NC(=O)c1cc([N+](=O)[O-])c(Cl)c([N+](=O)[O-])c1", "class.name": -1}
{"mol": "COc1ccc2c(ccc3oc([N+](=O)[O-])cc32)c1", "class.name": 1}
{"mol": "CCOP(=O)(OCC)/C(C#N)=C/c1ccc(Br)cc1", "class.name": -1}
{"mol": "O=[N+]([O-])c1ccc(Br)c([N+](=O)[O-])c1", "class.name": -1}

Please examine the following record next.
Hello, I am checking results. What call was entered for O=[N+]([O-])/C=C\c1ccc2c(c1)OCO2 ? -1

====

Tested on: HS 578T breast
Experiment: NCI-60 one-dose screen, 48 h
Settings: 10 µM
Protocol: Growth inhibition of the HS 578T human tumor cell line is measured as a screen for anti-cancer activity. Cells are grown in 96 well plates and exposed to the test compound for 48 hours. Compounds are tested at a single concentration, which is 10^-5 M for most compounds. The reported endpoint is percent growth (GI% or GIPRCNT), where numbers from 0 - 100% represent growth inhibition, and numbers from -100% - 0 represent cell death. For example, a value of 40 represents 60% growth inhibition. […]
About 83,000 compounds went through this panel and 20% of them were active in at least one assay; those are over-represented in the sample as a whole. Active and inactive are the calls of the source. The calls were made as follows: active = growth percent below 10; inactive = the rest.
Your reply should match one of these outcome classes. 1 = active, 0 = inactive

Please review the entries below; each comes with its answer.
{"compound": "O=C(CBr)Nc1ccc(Cl)cc1", "class.name": 0}
{"compound": "C/C1=C\\[C@H](C)C[C@H](C)OC(=O)C[C@H](c2ccc(O)cc2)NC(=O)[C@@H](Cc2c(Br)[nH]c3ccccc23)N(C)C(=O)[C@H](C)NC(=O)[C@@H](C)C1", "class.name": 1}

Hello, I am checking results. What call was entered for CC(=O)[O][Hg][c]1c(C)c(C)cc(C)c1C ? 1

Hello, I am checking results. What call was entered for COC(=O)C1C(O)C(C)C(O)C(C)/C=C\C=C(C)C(=O)Nc2c(C)c(OC(C)=O)c3c(c2O)C(=O)C(C)=C2OCOC(=C23)C(C)=CC(C)(O)C(O)C(C)C1O (configuration not stated) ? 0

Hello, I am checking results. What call was entered for CC(C)(C)OOC(=O)/C=C\C(=O)OOC(C)(C)C ? 0

Hello, I am checking results. What call was entered for COc1ccccc1[As]=[As]c1ccccc1OC (configuration not stated) ? 1

Hello, I am checking results. What call was entered for COc1cc([C@@H]2c3cc4c(c(O)c3C[C@H]3COC(=O)[C@@H]32)OCO4)cc(OC)c1OC ? 1

Numbers sourced from PubChem BioAssay (NCI).
